- TARGET_ENTITY: Glucocorticoid receptor (Homo sapiens, UniProt P04150)
- Sequence (P04150 whole entry): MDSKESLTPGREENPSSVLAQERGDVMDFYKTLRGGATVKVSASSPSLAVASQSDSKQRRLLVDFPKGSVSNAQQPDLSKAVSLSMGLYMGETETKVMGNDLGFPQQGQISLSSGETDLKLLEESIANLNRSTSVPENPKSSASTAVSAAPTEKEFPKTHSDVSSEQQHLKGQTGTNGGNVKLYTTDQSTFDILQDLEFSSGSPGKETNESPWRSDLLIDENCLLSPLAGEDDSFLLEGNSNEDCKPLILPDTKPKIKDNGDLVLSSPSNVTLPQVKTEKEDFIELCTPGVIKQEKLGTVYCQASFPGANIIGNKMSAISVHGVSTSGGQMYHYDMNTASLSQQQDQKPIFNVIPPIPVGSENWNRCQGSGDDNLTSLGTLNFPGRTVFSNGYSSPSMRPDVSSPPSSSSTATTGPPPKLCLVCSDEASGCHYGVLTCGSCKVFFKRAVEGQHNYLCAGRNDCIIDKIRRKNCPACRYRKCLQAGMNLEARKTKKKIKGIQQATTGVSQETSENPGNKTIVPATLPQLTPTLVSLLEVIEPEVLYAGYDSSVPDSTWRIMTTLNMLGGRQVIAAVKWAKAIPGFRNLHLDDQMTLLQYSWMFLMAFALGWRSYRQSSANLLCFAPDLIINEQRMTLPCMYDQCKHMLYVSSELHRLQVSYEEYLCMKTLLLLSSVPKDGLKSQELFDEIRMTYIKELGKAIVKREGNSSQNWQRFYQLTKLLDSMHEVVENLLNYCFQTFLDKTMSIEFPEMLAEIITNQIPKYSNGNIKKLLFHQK
Classify: TRUE when IC50 is strictly less than 0.01 µM; FALSE when IC50 is not.

Consider CC#C[C@]1(O)CC[C@H]2[C@@H]3CCC4=CC(=O)CCC4=C3[C@@H](c3ccc(OC[C@@H](O)CC(O)CC(=O)O)cc3)C[C@@]21C (single isomer, unassigned) . Does its IC50 lie strictly below 0.01 µM?
TRUE

Consider Cc1c(NS(C)(=O)=O)cccc1N(Cc1ccc(Oc2cccc(OC[C@@H](O)C[C@@H](O)CC(=O)O)c2)cc1)Cc1ccc(F)cc1F . Does its IC50 lie strictly below 0.01 µM?
FALSE

Consider Cc1c(NS(C)(=O)=O)cccc1N(Cc1ccccc1)Cc1ccc(Oc2ccc(OC[C@@H]3C[C@@H](O)CC(=O)O3)cc2)cc1 . Does its IC50 lie strictly below 0.01 µM?
TRUE

Others:
Consider CC#C[C@]1(O)CC[C@H]2[C@@H]3CCC4=CC(=O)CCC4=C3[C@@H](c3ccc(N(C)C[C@@H](O)CC(=O)O)cc3)C[C@@]21C . Does its IC50 lie strictly below 0.01 µM?
FALSE

Consider Cc1c(NS(C)(=O)=O)cccc1N(Cc1ccc(Oc2cccc(OC[C@@H]3C[C@@H](O)CC(=O)O3)c2)cc1)Cc1ccc(F)cc1F . Does its IC50 lie strictly below 0.01 µM?
FALSE
